Listed below: Kd values for each entry.
target: R12 domain of RyR1 (Homo sapiens); construct: RyR1 854–1054, RyR2 865–1065, RyR3 853–1053; made in house; host or cells: E. coli BL21 (DE3); experiment: ITC, R12 domain of RyR1; type: binding; settings: RyR1 R12 + 500 µM ADP
Sequence (P21817 854-1054): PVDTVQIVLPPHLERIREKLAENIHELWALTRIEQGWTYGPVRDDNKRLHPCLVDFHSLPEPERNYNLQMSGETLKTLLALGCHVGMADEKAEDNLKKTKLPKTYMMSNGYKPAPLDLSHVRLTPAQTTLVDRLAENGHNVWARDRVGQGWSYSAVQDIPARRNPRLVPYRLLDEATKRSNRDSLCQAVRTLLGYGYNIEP
Report the figure in µM without appending any unit label.

O=C1CN(/N=C/c2ncc(-c3ccc(Br)cc3)o2)C(=O)N1 [AZU, Azumolene]    0.241

Reported Kd, compound O=C(C[C@@H](NCCCO)C(=O)O)Nc1ccc2ccccc2c1 [RI-2] : ____
49.1

====

biological target: R12 domain of RyR1 (Homo sapiens); construct: RyR1 854–1054, RyR2 865–1065, RyR3 853–1053; made in house; host or cells: E. coli BL21 (DE3); assay: ITC, R12 domain of RyR1; type: binding; conditions: RyR1 R12 + 500 µM AMP-PCP
Parameter measured: Kd (µM)
Report the figure in µM without appending any unit label.

Reported Kd, compound `O=C(C[C@@H](NCCCO)C(=O)O)Nc1ccc2ccccc2c1` : ____
1.75
